Target: recombinant human DNase I (Homo sapiens, UniProt P24855)
Construct: Recombinant DNase I was produced using a similar approach; made in house
Sequence (P24855 23-282): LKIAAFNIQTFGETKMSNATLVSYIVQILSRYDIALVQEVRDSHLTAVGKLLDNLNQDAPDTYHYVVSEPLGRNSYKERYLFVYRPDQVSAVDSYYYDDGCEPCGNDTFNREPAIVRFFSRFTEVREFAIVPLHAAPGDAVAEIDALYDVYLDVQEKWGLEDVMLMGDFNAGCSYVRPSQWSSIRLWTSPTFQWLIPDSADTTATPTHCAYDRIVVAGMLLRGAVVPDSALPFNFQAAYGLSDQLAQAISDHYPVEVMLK
Experiment: Plasmid incision assay of endonuclease activity, recombinant DNase I
Assay type: biochemical
Settings: 0, 100 or 200 μM; 1 hour at 37° C.; pBR322 plasmid DNA
reportedMetric: Inhibition of DNase I activity

[[record]]
compound = "O=C(O)[C@H](O)[C@@H](O)[C@H](O)[C@H](O)CO"
reportedmetric = "Inhibition of DNase I activity"
observedvalue = "no effect"

[[record]]
compound = "NCC(=O)[O-].NCC(=O)[O-].[Zn+2] [Zn-glycinate]"
reportedmetric = "Inhibition of DNase I activity"
observedvalue = "inhibited"

[[record]]
compound = "NCC(=O)O"
reportedmetric = "Inhibition of DNase I activity"
observedvalue = "no effect"

[[record]]
compound = "CC(C)c1cc(C(=O)O)c(O)c(C(C)C)c1"
reportedmetric = "Inhibition of DNase I activity"
observedvalue = "no effect"

[[record]]
compound = "O=C([O-])[C@H](O)[C@@H](O)[C@H](O)[C@H](O)CO.O=C([O-])[C@H](O)[C@@H](O)[C@H](O)[C@H](O)CO.[Zn+2] [Zn-gluconate]"
reportedmetric = "Inhibition of DNase I activity"
observedvalue = "inhibited"


---

Biological target: rat serum DNase (predominantly rat DNase I) (Rattus norvegicus)
Construct: rat serum DNase (which is predominantly rat DNase I); from tissue; host or cells: rat serum
Sequence (P21704 23-284): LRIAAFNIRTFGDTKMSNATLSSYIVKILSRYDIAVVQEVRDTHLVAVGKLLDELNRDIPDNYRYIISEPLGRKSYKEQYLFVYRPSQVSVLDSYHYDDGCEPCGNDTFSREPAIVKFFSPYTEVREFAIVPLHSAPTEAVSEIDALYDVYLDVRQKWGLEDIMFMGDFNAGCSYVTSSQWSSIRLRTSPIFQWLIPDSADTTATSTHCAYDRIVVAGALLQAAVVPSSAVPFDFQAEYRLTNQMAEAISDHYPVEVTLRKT
Assay: Plasmid incision assay of endonuclease activity, rat serum DNase
Format: biochemical
Conditions: 0, 100 or 200 μM; 1 hour at 37° C.; pBR322 plasmid DNA
reportedMetric: Inhibition of serum DNase activity

[[record]]
compound = "NCC(=O)[O-].NCC(=O)[O-].[Zn+2] [Zn-glycinate]"
reportedmetric = "Inhibition of serum DNase activity"
observedvalue = "inhibited"

[[record]]
compound = "CC(C)c1cc(C(=O)O)c(O)c(C(C)C)c1 [DIPS, 3,5-diisopropylsalicylic acid]"
reportedmetric = "Inhibition of serum DNase activity"
observedvalue = "no effect"

[[record]]
compound = "O=C([O-])[C@H](O)[C@@H](O)[C@H](O)[C@H](O)CO.O=C([O-])[C@H](O)[C@@H](O)[C@H](O)[C@H](O)CO.[Zn+2] [Zn-gluconate]"
reportedmetric = "Inhibition of serum DNase activity"
observedvalue = "inhibited"

[[record]]
compound = "O=C(O)[C@H](O)[C@@H](O)[C@H](O)[C@H](O)CO [gluconic acid]"
reportedmetric = "Inhibition of serum DNase activity"
observedvalue = "no effect"

[[record]]
compound = "NCC(=O)O [glycine]"
reportedmetric = "Inhibition of serum DNase activity"
observedvalue = "no effect"

